Tested on: HCI-002 (organoid from a triple-negative breast cancer xenograft)
PROCEDURE_DETAILS: CTG-3D luminescence at 96 h relative to day-0 seeding control (ratio to day 0); higher = more growth / less cytotoxicity; PDxO 3D drug screen, 96 h, CTG-3D normalised to day-0 seeding control.
TEST_CONDITIONS: 1 µM; days in culture: 191
Param threshold (1) applies to CTG-3D luminescence at 96 h; output 1 when value >= threshold, -1 when value < threshold.

COMPOUND	ASSIGNED_LABEL
CC(=O)O[C@H]1C(=O)[C@@]2(C)[C@H]([C@H](OC(=O)c3ccccc3)[C@]3(O)C[C@H](OC(=O)[C@H](O)[C@@H](NC(=O)c4ccccc4)c4ccccc4)C(C)=C1C3(C)C)[C@]1(OC(C)=O)CO[C@@H]1C[C@@H]2O	-1
C=CCn1c(=O)c2cnc(Nc3ccc(N4CCN(C)CC4)cc3)nc2n1-c1cccc(C(C)(C)O)n1	1
O=C(/C=C/c1cccnc1)NCCCCC1CCN(C(=O)c2ccccc2)CC1	-1
Cc1nc(-c2cn3c(n2)-c2ccc(-c4cnn(C(C)(C)C(N)=O)c4)cc2OCC3)n(C(C)C)n1	1
CNC(=O)c1cccc(-c2ccc3c(N4CCOC[C@@H]4C)nc(N4CCOC[C@@H]4C)nc3n2)c1	1
CS(=O)(=O)c1ccc(C(=O)Nc2ccc(Cl)c(-c3ccccn3)c2)c(Cl)c1	1
CCc1c2c(nc3ccc(O)cc13)-c1cc3c(c(=O)n1C2)COC(=O)[C@]3(O)CC	-1

====

CTG-3D luminescence at 96 h values, listed per item
Tested on: HCI-001 (organoid from a triple-negative breast cancer xenograft)
PROCEDURE_DETAILS: CTG-3D luminescence at 96 h relative to day-0 seeding control (ratio to day 0); higher = more growth / less cytotoxicity; PDxO 3D drug screen, 96 h, CTG-3D normalised to day-0 seeding control.
TEST_CONDITIONS: 12.5 pM; days in culture: 269

MOLECULE	STUDY_SYSTEM	CTG-3D luminescence at 96 h
C/C=C1\NC(=O)[C@H]2CSSCC/C=C/[C@H](CC(=O)N[C@H](C(C)C)C(=O)N2)OC(=O)[C@H](C(C)C)NC1=O	HCI-001	1.82
C[C@@H]1COCCN1c1cc(C2([S@](C)(=N)=O)CC2)nc(-c2cc[nH]c3nccc2-3)n1	HCI-001	1.61
CC1(C)CCC(c2ccc(Cl)cc2)=C(CN2CCN(c3ccc(C(=O)NS(=O)(=O)c4ccc(N[C@H](CCN5CCOCC5)CSc5ccccc5)c(S(=O)(=O)C(F)(F)F)c4)cc3)CC2)C1	HCI-001	1.8
O=C(c1ccc(F)c(F)c1Nc1ccc(I)cc1F)N1CC(O)([C@@H]2CCCCN2)C1	HCI-001	1.48
CS(=O)(=O)c1ccc(C(=O)Nc2ccc(Cl)c(-c3ccccn3)c2)c(Cl)c1	HCI-001	1.57
CCc1c2c(nc3ccc(O)cc13)-c1cc3c(c(=O)n1C2)COC(=O)[C@]3(O)CC	HCI-001	1.53
CN(Cc1cnc2nc(N)nc(N)c2n1)c1ccc(C(=O)N[C@@H](CCC(=O)O)C(=O)O)cc1 [methotrexate]	HCI-001	1.68
Cc1cc(Nc2ncnc3ccc(NC4=NC(C)(C)CO4)cc23)ccc1Oc1ccn2ncnc2c1	HCI-001	1.48
Nc1ccn([C@@H]2O[C@H](CO)[C@@H](O)C2(F)F)c(=O)n1	HCI-001	1.5

====

CTG-3D luminescence at 96 h values, listed per item
Test system: HCI-024 (organoid from a breast cancer xenograft)
PROCEDURE_DETAILS: CTG-3D luminescence at 96 h relative to day-0 seeding control (ratio to day 0); higher = more growth / less cytotoxicity; PDxO 3D drug screen, 96 h, CTG-3D normalised to day-0 seeding control.
TEST_CONDITIONS: 1 µM; days in culture: 122

COMPOUND	CTG-3D luminescence at 96 h
CC(=O)O[C@H]1C(=O)[C@@]2(C)[C@H]([C@H](OC(=O)c3ccccc3)[C@]3(O)C[C@H](OC(=O)[C@H](O)[C@@H](NC(=O)c4ccccc4)c4ccccc4)C(C)=C1C3(C)C)[C@]1(OC(C)=O)CO[C@@H]1C[C@@H]2O	1.62
Cc1cc(Nc2ncc(Cl)c(Nc3ccccc3S(=O)(=O)C(C)C)n2)c(OC(C)C)cc1C1CCNCC1	1.16
C[C@@H]1COCCN1c1cc(C2([S@](C)(=N)=O)CC2)nc(-c2cc[nH]c3nccc2-3)n1	1.23
CNC(=O)c1cccc(-c2ccc3c(N4CCOC[C@@H]4C)nc(N4CCOC[C@@H]4C)nc3n2)c1	0.987
NC1(C(=O)N[C@@H](CCO)c2ccc(Cl)cc2)CCN(c2nc[nH]c3nccc2-3)CC1	1.09
C[C@H](NC(=O)CCC(F)(F)F)C(=O)N[C@@H]1C(=O)N(CCO)c2ncccc2-c2ccccc21	1.97
CC[C@H](NC(=O)[C@H](C)NC)C(=O)N1C[C@@H](O)C[C@H]1Cc1c(-c2[nH]c3cc(F)ccc3c2C[C@@H]2C[C@H](O)CN2C(=O)[C@H](CC)NC(=O)[C@H](C)NC)[nH]c2cc(F)ccc12	0.134
NC(=O)c1cccc2cn(-c3ccc([C@@H]4CCCNC4)cc3)nc12	1.88
CN(Cc1cnc2nc(N)nc(N)c2n1)c1ccc(C(=O)N[C@@H](CCC(=O)O)C(=O)O)cc1 [methotrexate]	2.13
Nc1ccn([C@@H]2O[C@H](CO)[C@@H](O)C2(F)F)c(=O)n1	0.97
O=C(c1ccc(F)c(F)c1Nc1ccc(I)cc1F)N1CC(O)([C@@H]2CCCCN2)C1	0.873

====

CTG-3D luminescence at 96 h values, listed per item
System: HCI-027 (organoid from a triple-negative breast cancer xenograft)
PROCEDURE_DETAILS: CTG-3D luminescence at 96 h relative to day-0 seeding control (ratio to day 0); higher = more growth / less cytotoxicity; PDxO 3D drug screen (set 2), 96 h, CTG-3D normalised to day-0 seeding control.
TEST_CONDITIONS: 625 fM; days in culture: 164

MOLECULE	CTG-3D luminescence at 96 h
COc1cccc2c1C(=O)c1c(O)c3c(c(O)c1C2=O)C[C@@](O)(C(=O)CO)C[C@@H]3O[C@H]1C[C@H](N)[C@@H](O)[C@H](C)O1 [epirubicin]	3.34
CC(=O)c1c(C)c2cnc(Nc3ccc(N4CCNCC4)cn3)nc2n(C2CCCC2)c1=O	2.8
CO[C@H]1C[C@@H]2CC[C@@H](C)[C@@](O)(O2)C(=O)C(=O)N2CCCC[C@H]2C(=O)O[C@H]([C@H](C)C[C@@H]2CC[C@@H](O)[C@H](OC)C2)CC(=O)[C@H](C)/C=C(\C)[C@@H](O)[C@@H](OC)C(=O)[C@H](C)C[C@H](C)/C=C/C=C/C=C/1C	1.82
Nc1cc(C(F)(F)F)c(-c2cc(N3CCOCC3)nc(N3CCOCC3)n2)cn1	1.57
CS(=O)(=O)CCNCc1ccc(-c2ccc3ncnc(Nc4ccc(OCc5cccc(F)c5)c(Cl)c4)c3c2)o1	1.64

====

CTG-3D luminescence at 96 h values, listed per item
Test system: HCI-005.E2 (organoid from a breast cancer xenograft with a HER2-positive history)
PROCEDURE_DETAILS: CTG-3D luminescence at 96 h relative to day-0 seeding control (ratio to day 0); higher = more growth / less cytotoxicity; PDxO 3D drug screen, 96 h, CTG-3D normalised to day-0 seeding control.
TEST_CONDITIONS: 100 µM

COMPOUND	CTG-3D luminescence at 96 h
CS(=O)(=O)c1ccc(C(=O)Nc2ccc(Cl)c(-c3ccccn3)c2)c(Cl)c1	0.318
CC1(C)CCC(c2ccc(Cl)cc2)=C(CN2CCN(c3ccc(C(=O)NS(=O)(=O)c4ccc(N[C@H](CCN5CCOCC5)CSc5ccccc5)c(S(=O)(=O)C(F)(F)F)c4)cc3)CC2)C1	0.0085
CC(C)n1nc(-c2ccc3oc(N)nc3c2)c2c(N)ncnc21	0.0263
Nc1ccn([C@@H]2O[C@H](CO)[C@@H](O)C2(F)F)c(=O)n1	0.438
NC(=O)c1cccc2cn(-c3ccc([C@@H]4CCCNC4)cc3)nc12	-0.00126
O=C(O)C1(C(=O)O)CCC1.[NH2-].[NH2-].[Pt+2]	0.225
COc1cccc2c1C(=O)c1c(O)c3c(c(O)c1C2=O)C[C@@](O)(C(=O)CO)C[C@@H]3O[C@H]1C[C@H](N)[C@H](O)[C@H](C)O1	-0.00667
CNC(=O)c1cccc(-c2ccc3c(N4CCOC[C@@H]4C)nc(N4CCOC[C@@H]4C)nc3n2)c1	0.57
O=C(/C=C/c1cccnc1)NCCCCC1CCN(C(=O)c2ccccc2)CC1	0.166

====

Tested on: HCI-027
PROCEDURE_DETAILS: CTG-3D luminescence at 96 h relative to day-0 seeding control (ratio to day 0); higher = more growth / less cytotoxicity; PDxO 3D drug screen, 96 h, CTG-3D normalised to day-0 seeding control.
TEST_CONDITIONS: 100 µM; days in culture: 201
CTG-3D luminescence at 96 h values, listed per item
QUANTITY_MEASURED: CTG-3D luminescence at 96 h

> print(dat)
                                   compound            quantity.measured     result
1  NC1(C(=O)N[C@@H](CCO)c2ccc(Cl)cc2)CCN(c2nc[nH]c3nccc2-3)CC1 [capivasertib]  CTG-3D luminescence at 96 h     0.0625
2  CCN(c1cc(C#CCN2CCOCC2)cc(C(=O)NCc2c(C)cc(C)[nH]c2=O)c1C)[C@H]1CC[C@H](N(C)CCOC)CC1  CTG-3D luminescence at 96 h       2.22
3  COc1cc2c(Oc3ccc4[nH]c(C)cc4c3F)ncnc2cc1OCCCN1CCCC1 [cediranib]  CTG-3D luminescence at 96 h  -0.000884
4  C[C@H](NC(=O)CCC(F)(F)F)C(=O)N[C@@H]1C(=O)N(CCO)c2ncccc2-c2ccccc21 [crenigacestat]  CTG-3D luminescence at 96 h      0.259
5  CCN1CCN(Cc2ccc(Nc3ncc(F)c(-c4cc(F)c5nc(C)n(C(C)C)c5c4)n3)nc2)CC1 [abemaciclib]  CTG-3D luminescence at 96 h      0.018
6  Cc1cc(Nc2ncc(Cl)c(Nc3ccccc3S(=O)(=O)C(C)C)n2)c(OC(C)C)cc1C1CCNCC1 [ceritinib]  CTG-3D luminescence at 96 h   -0.00463
